target: Integrin alpha-V/beta-3 (Homo sapiens, UniProt P05106+P06756); assay: Binding affinity to integrin alphav/beta3 heterodimer in human M21 cells assessed as inhibition of integrin-mediated human M21 cell adhesion to vitronectin incubated for 30 mins in presence of MnCl2
Sequence (P05106 27-788 limits assumed): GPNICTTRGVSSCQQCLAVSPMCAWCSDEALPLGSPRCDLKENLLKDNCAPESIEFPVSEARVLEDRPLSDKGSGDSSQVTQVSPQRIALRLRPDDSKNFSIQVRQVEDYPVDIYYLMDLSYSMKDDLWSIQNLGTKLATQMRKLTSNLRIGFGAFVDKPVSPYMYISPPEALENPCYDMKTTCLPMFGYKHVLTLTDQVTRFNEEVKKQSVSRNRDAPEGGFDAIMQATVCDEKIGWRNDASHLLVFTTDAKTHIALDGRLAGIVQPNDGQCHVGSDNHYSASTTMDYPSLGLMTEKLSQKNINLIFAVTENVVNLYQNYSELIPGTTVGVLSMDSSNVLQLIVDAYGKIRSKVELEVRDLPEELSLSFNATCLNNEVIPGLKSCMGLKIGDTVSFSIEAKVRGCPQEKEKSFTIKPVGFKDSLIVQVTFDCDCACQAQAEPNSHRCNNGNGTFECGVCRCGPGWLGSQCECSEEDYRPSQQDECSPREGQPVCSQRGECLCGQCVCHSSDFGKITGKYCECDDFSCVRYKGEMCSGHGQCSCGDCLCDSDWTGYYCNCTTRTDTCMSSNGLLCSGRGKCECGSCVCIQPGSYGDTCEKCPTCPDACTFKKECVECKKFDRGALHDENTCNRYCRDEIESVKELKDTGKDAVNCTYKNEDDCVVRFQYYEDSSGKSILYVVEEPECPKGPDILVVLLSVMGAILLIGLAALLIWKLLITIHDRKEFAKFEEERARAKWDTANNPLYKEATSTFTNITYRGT
Sequence (P06756 31-889 limits assumed): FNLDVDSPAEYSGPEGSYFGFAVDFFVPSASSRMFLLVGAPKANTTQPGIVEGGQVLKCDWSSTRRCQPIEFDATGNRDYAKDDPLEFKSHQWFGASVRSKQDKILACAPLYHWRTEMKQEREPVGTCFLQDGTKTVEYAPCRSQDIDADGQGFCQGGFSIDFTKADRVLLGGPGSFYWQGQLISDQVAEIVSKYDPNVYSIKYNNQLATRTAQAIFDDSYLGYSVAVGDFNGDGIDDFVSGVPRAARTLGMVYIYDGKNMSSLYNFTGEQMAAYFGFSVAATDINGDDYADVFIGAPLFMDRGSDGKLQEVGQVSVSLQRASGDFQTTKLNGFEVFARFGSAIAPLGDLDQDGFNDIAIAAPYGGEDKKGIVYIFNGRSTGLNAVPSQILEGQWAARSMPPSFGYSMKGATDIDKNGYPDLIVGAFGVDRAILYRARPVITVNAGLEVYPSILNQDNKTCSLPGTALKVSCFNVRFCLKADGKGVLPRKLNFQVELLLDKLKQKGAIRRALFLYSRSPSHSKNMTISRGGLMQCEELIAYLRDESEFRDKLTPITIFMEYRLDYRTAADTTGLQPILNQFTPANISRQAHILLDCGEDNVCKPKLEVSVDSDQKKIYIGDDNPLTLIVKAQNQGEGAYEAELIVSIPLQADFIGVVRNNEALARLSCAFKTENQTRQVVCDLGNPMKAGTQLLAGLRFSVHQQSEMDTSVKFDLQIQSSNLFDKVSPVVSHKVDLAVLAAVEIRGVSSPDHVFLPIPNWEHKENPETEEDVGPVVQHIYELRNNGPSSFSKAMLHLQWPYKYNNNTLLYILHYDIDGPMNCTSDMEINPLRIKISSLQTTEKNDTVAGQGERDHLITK
Sequence (P06756 891-1048 limits assumed): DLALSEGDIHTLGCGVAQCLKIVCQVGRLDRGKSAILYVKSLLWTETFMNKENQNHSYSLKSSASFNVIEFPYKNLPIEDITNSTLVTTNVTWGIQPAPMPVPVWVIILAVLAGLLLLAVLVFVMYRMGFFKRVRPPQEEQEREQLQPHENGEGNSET
Measurement Type: IC50 (µM)

Sample Smiles	Recorded Result
COC(=O)N1CC[C@H]2NC(=O)[C@H](CC(=O)O)NC(=O)CNC(=O)[C@H](CCCNC(=N)N)NC(=O)[C@@]13C[C@@H]23	0.0024
COC(=O)N1C[C@H]2C[C@H]3C[C@]31C(=O)N[C@@H](CCCNC(=N)N)C(=O)NCC(=O)N[C@@H](CC(=O)O)C(=O)N2	0.034
